Every entry's value here was drawn from the RNAGym collection of RNA variant scans (doi:10.7554/elife.90254).

Readings of self-cleavage for the listed variants
B1: OR4K15 (parent)
chain: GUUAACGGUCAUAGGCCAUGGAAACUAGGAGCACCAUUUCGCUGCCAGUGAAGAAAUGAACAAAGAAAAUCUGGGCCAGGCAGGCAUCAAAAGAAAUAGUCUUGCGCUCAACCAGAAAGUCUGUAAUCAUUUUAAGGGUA

- Variants of: B1
- Method Notes: self-cleavage, relative activity (ratio to wild type); higher = more cleavage; in vitro, sequencing; the parent is a self-cleaving ribozyme
Lab note: record just the number, no unit beside it.

Observe how each entry below is paired with its result.
[Q] Give the measured self-cleavage of U19A A116U .
[A] 0.43

[Q] Give the measured self-cleavage of C25A U122C .
[A] 0.72

[Q] Give the measured self-cleavage of A47U U131C .
[A] 0.54

[Q] Give the measured self-cleavage of A67U A125G .
[A] 1.2

[Q] Give the measured self-cleavage of A47U U108C .
[A] 0.01

[Q] Give the measured self-cleavage of U127A U130A .
[A] 1.95

New cases:
[Q] Give the measured self-cleavage of `A129C` .
[A] 0.97

[Q] Give the measured self-cleavage of G84A U102G .
[A] 1.29

[Q] Give the measured self-cleavage of A18G U87C .
[A] 1.27

[Q] Give the measured self-cleavage of A63G G99U .
[A] 1.14

[Q] Give the measured self-cleavage of A67U U72A .
[A] 0.2

[Q] Give the measured self-cleavage of A24G U49G .
[A] 0.9

[Q] Give the measured self-cleavage of U2A A18U .
[A] 1.37

[Q] Give the measured self-cleavage of A24G U139C .
[A] 0.99
